Below: a set of entries, each annotated with reported Percent Effect.
target: Sialic acid-binding Ig-like lectin 9 (Homo sapiens) (UniProt Q9Y336)
Sequence (Q9Y336 whole entry): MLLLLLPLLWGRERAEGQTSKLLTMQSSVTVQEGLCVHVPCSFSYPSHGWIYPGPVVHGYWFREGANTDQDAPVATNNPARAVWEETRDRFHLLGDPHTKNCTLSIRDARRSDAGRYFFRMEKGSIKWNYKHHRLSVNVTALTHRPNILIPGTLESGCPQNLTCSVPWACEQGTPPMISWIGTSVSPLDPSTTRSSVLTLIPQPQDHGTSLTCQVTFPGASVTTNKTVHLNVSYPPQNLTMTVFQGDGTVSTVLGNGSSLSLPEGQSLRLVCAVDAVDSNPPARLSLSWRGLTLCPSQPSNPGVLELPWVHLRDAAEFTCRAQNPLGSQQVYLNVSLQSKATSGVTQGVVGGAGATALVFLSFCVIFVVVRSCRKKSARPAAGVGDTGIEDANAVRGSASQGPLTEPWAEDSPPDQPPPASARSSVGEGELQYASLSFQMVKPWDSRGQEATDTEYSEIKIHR
test.protocol: Hs-Siglec9 ALPHAscreen SOP 20170721
Design: scale not given: direction of the effect not stated beside the values
conditions: 10 µM
Answer with a number only, understood to be in %.

- compound: "O=C(NCCOc1ccc(F)c(F)c1)NCc1ccncc1"
  Percent Effect / %: -1.88
- compound: "CN(C)C(=O)N1C[C@H](Oc2ccccn2)[C@H]2OCCC[C@H]21"
  Percent Effect / %: 2.55
- compound: "O=C(CCc1nccs1)N1CCN(c2ncccn2)CC1"
  Percent Effect / %: -4.24
- compound: "COc1ccc(CN(C)[C@@H]2CN(C(=O)c3cccs3)C[C@H]2O)cc1"
  Percent Effect / %: 2.59
- compound: "CNc1nc(CNC(=O)Nc2cccc(F)c2C)cs1"
  Percent Effect / %: 5.4
- compound: "Cc1nn(C)c2c(N3CCN(C(=O)c4ccccc4)CC3)ncnc12"
  Percent Effect / %: -1.85
- compound: "Cc1noc(NC(=O)c2ccc(OC(F)(F)F)cc2)n1"
  Percent Effect / %: 1.75
- compound: "COCCN1CCC(NC(=O)C2(c3cc(C)cc(C)c3)CC2)CC1"
  Percent Effect / %: -1.6

Form: compound = Cc1cc(S(=O)(=O)Nc2cccc(-n3cccc3)c2)sc1C(=O)O ; Percent Effect = 7.4

Form: compound = O=C(c1cccn1Cc1cccs1)N1CCCC1Cn1cccn1 (configuration not stated) ; Percent Effect = 10.5

Form: compound = O=C(CC1=CCCCC1)NCCc1csc(N2CCCC2)n1 ; Percent Effect = 8.91

Form: compound = O=C1CN(Cc2nnc(-c3ccc(Br)cc3)o2)CCN1 ; Percent Effect = 2.35

----------
target: Proteasome subunit beta (Trypanosoma cruzi) (UniProt O96673)
Sequence (whole entry): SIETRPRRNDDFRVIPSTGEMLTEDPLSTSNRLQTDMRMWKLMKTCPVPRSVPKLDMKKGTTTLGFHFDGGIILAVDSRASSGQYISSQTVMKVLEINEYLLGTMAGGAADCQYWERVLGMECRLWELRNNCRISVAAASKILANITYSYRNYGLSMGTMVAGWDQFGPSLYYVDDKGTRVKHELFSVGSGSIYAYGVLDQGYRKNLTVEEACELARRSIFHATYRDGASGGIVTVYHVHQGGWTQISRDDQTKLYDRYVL
test.protocol: Trypanosoma cruzi proteasome chymotrypsin-like activity (TcProtChymo) assay. Further: in the data most compounds retested in dose-response had high values.
Assay type: functional
Parameters: scale not given: direction of the effect not stated beside the values
conditions: 9.37 µM
endpoint: Percent Effect (%)
Answer with a number only, understood to be in %.

- molecule: "CN1CCC(c2nnc(CN3CCC(O)CC3)n2C)CC1"
  u: "%"
  Percent Effect: 8.87

Form: molecule = CCOc1ccccc1Nc1nc2c(C)nn(C)c2c(=O)n1C ; Percent Effect = 10.7

Form: molecule = CN(C)c1ccc(CCCNC(=O)Nc2ccc(C#N)cc2)cc1 ; Percent Effect = 15.7

Form: molecule = CNC(=O)[C@H]1C[C@@H]2CN(C(=O)c3cscn3)C[C@@H]2N1S(C)(=O)=O ; Percent Effect = 5.64

Form: molecule = CC1CCc2nc(O)c(C(=O)NCCN(C)C)cc2C1 (centres undefined) ; Percent Effect = 14.8

Form: molecule = CC(C)c1n[nH]c(C2CN(Cc3nnc(C4CC4)o3)CCO2)n1 (centres undefined) ; Percent Effect = 6.47

Form: molecule = CSCCNC(=O)c1ccc(OC2CCN(CC(C)(C)C)CC2)c(Cl)c1 ; Percent Effect = 7.47

Form: molecule = Cn1nc(C2CCCN(C(=O)CO)C2)cc1O (centres undefined) ; Percent Effect = 1.4

Form: molecule = CC(CNC(=O)N1CCN(c2cnccn2)CC1)Cc1cccs1 (centres undefined) ; Percent Effect = 10.6

Form: molecule = O=C(CCC1CCCC1)N1CCC(c2ncc3c(n2)CCNC3)CC1 ; Percent Effect = 8.42
